- Experimental system: T1, LAG3 Protein, Human, Recombinant (His Tag) (Sino Biological Catalog No. 16498-H08H) (human, UniProt P18627 23-450)
- T1 construct: Bought protein; also called hLAG3-His; LAG3-His; not shown: His tag
- T1 sequence (looked up): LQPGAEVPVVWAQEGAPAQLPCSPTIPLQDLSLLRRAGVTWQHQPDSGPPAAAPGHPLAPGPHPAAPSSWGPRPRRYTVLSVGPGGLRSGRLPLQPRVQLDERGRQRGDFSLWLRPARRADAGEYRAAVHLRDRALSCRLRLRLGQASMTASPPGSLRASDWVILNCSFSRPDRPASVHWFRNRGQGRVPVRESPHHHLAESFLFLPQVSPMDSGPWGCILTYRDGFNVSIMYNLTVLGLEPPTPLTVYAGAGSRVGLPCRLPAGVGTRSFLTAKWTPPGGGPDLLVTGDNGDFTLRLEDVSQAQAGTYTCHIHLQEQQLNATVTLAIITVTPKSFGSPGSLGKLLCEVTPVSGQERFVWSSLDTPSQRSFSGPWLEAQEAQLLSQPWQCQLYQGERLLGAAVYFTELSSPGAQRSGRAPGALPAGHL
- Procedure text: ELISA, coated hLAG3-His
Value kind: OD450 at 14.815 nM
Keep the answer to the number alone.

Check out these entries, answers already filled in.
[[record]]
binder = "sdAb No. 25-B6 (VHH, Humanized sdAb No. 25; not shown: Fc part implied by anti-human IgG1 Fc detection) VHH: QLQLVESGGGLVKPGGSLRLSCAASGSIESFSFMGWYRQAPGKQREWVAGFTGAASLSFSTYTDAVKGRFTISRDNAKNSVYLQMNSLRAEDTAVYYCNVDPWSQSWPGRYWGQGTTVTVSS"
number = 0.069

[[record]]
binder = "sdAb No. 27 (VHH, Fc of the tested form not described; also called sdAb 27; not shown: Fc part implied by anti-human Fc capture and anti-human IgG Fc detection) VHH: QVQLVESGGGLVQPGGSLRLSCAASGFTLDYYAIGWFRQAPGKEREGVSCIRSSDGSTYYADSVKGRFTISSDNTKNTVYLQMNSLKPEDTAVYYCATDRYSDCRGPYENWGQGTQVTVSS"
number = 1.57

[[record]]
binder = "sdAb No. 25-B5 (VHH, Humanized sdAb No. 25; not shown: Fc part implied by anti-human IgG1 Fc detection) VHH: QVQLVESGGGLVKPGGSLRLSCAASGSIESFSFMGWYRQAPGKQREWVAGFTGAASLSFSTYTDAVKGRFTISRDNAKNSLYLQMNSLRAEDTAVYYCNVDPWSQSWPGRYWGQGTTVTVSS"
number = 0.084

[[record]]
binder = "sdAb No. 25-B7 (VHH, Humanized sdAb No. 25; not shown: Fc part implied by anti-human IgG Fc detection) VHH: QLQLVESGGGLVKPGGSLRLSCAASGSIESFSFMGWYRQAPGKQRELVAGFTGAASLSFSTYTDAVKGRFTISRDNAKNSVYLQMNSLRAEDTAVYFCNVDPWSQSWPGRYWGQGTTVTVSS"
number = 1.41

[[record]]
binder = "sdAb No. 25 (VHH, Fc of the tested form not described; also called sdAb 25; sdAb #25; not shown: Fc part implied by anti-human Fc capture and anti-human IgG Fc detection) VHH: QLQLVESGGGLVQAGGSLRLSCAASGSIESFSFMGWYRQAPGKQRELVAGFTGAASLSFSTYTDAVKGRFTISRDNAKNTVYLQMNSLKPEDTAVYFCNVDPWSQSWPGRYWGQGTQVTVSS"
number = 0.85


Please examine the following record next.
Returns the measured OD450 at 14.815 nM for the input binder. Input: sdAb No. 27-H1B3 (VHH, Humanized sdAb No. 27-H1; not shown: Fc part implied by anti-human IgG Fc detection) VHH: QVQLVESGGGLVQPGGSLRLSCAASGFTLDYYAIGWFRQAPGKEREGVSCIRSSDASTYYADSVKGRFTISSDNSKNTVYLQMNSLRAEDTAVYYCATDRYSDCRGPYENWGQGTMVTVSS
2.88
